molecular target: Tyrosine-protein kinase BTK (Homo sapiens, UniProt Q06187, R28H); assay: Inhibition of recombinant full length human BTK R28H mutant using KVEKIGEGTYGVV substrate incubated for 40 mins in presence of [gamma-33ATP] by radiometric scintillation counting analysis
Sequence (Q06187 2-659 R28H limits assumed): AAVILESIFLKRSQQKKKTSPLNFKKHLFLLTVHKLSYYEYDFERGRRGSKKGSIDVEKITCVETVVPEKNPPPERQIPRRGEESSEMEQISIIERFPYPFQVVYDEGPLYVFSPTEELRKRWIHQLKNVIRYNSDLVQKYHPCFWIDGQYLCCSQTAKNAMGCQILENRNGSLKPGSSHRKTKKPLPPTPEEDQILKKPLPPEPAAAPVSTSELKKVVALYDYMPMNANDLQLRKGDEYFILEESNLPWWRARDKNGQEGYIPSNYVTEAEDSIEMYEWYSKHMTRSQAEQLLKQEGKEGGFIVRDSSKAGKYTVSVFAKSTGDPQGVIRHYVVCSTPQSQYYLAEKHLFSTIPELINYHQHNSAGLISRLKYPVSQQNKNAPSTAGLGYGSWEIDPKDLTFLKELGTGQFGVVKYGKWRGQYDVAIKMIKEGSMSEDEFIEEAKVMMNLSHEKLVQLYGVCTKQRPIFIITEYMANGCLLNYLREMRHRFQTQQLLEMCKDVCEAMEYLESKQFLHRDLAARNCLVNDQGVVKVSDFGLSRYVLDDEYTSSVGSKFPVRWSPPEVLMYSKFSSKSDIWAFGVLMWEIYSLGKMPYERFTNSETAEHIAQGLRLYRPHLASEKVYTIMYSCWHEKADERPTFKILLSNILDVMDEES
pIC50: −log10 of the molar value.
readout: pIC50

1) CN(C)c1ccc(C(=O)Nc2cccc(NC(=O)COc3ccc4c(=O)ccoc4c3)c2)cc1
< 5.00

* * *

molecular target: Testis-specific serine/threonine-protein kinase 4 (Homo sapiens, UniProt Q6SA08); experiment: Inhibition of recombinant full-length human TSSK4 using KKLNRTLSFAEPG as substrate incubated for 40 mins in presence of [gamma33P]ATP by radiometric scintillation counting analysis
Sequence (Q6SA08 whole entry): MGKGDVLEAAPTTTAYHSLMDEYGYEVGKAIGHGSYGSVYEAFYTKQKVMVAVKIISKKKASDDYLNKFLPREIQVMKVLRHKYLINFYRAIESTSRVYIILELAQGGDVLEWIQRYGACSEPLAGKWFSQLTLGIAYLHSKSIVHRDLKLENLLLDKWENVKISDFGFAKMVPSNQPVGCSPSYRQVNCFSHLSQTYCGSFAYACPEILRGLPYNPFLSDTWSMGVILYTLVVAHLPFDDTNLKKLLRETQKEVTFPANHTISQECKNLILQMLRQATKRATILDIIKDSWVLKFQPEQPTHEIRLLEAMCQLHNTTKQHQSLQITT
pIC50: −log10 of the molar value.
readout: pIC50

1. CN(C)c1ccc(C(=O)Nc2cccc(NC(=O)COc3ccc4c(=O)ccoc4c3)c2)cc1
< 5.00
